Taken from patent US6372770B1.

Target: PDE III (Homo sapiens, UniProt Q14432)
Construct: Fractions containing PDE III activity are pooled and dialyzed overnight; from tissue; host or cells: human platelets
Sequence (Q14432 whole entry): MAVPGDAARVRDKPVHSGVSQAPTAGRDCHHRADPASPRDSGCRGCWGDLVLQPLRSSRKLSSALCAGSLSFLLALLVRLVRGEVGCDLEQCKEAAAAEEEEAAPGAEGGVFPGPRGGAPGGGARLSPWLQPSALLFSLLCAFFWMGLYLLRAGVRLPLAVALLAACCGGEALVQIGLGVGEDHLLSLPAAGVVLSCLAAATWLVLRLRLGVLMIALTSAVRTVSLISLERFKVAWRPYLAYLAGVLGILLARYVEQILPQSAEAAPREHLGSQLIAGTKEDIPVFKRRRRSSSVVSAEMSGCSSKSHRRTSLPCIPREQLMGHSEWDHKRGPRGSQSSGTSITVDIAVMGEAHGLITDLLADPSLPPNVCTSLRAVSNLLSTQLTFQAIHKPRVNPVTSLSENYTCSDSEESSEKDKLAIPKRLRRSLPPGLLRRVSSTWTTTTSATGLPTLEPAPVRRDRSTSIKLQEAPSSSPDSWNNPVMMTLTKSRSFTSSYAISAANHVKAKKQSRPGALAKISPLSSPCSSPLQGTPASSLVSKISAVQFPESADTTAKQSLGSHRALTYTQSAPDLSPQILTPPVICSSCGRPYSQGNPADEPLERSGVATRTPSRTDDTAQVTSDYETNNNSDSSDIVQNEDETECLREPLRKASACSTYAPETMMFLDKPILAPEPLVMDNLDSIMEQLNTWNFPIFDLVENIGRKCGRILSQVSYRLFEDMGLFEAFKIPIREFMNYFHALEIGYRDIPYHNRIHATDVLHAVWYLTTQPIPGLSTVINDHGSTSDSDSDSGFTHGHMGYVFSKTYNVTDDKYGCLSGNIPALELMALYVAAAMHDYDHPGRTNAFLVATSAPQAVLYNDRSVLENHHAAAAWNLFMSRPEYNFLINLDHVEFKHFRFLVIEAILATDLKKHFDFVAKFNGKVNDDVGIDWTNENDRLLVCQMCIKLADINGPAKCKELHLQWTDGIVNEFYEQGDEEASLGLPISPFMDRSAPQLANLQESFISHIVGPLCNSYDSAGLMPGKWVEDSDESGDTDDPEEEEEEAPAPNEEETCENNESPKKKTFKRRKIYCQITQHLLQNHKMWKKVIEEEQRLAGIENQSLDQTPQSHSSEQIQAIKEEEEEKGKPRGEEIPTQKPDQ
Assay: Type III PDE inhibition, hydrolysis of [3H]-cyclic AMP
Format: biochemical
Conditions: Type III PDE isolated from human platelets; 0.2 μM cyclic AMP
Counter-ions that a name gives are not always drawn.
endpoint_name: IC50 (µM)

compound: COc1ccc(Cc2nc3cc(Cl)cc(CC=NO)c3o2)cc1OC1CCCC1 [Example 26]
assayed_system: PDE III (Homo sapiens, UniProt Q14432)
endpoint_name: IC50
result_qualifier: =
result: 11.4
//
compound: CC(=O)CCc1cc(Cl)cc2nc(-c3ccccc3Cl)oc12 [Example 9]
assayed_system: PDE III (Homo sapiens, UniProt Q14432)
endpoint_name: IC50
result_qualifier: >
result: 300
//
compound: Clc1cccc(-c2nc3cccc(NCc4ccccn4)c3o2)c1 [Example 33]
assayed_system: PDE III (Homo sapiens, UniProt Q14432)
endpoint_name: IC50
result_qualifier: =
result: 173
//
compound: COc1ccc(Cc2nc3c(OC(C)=O)cccc3o2)cc1OC1CCCC1 [Example 8]
assayed_system: PDE III (Homo sapiens, UniProt Q14432)
endpoint_name: IC50
result_qualifier: =
result: 158
//
compound: C=CCc1cc(Cl)cc2nc(Cc3ccccc3Cl)oc12 [Example 38]
assayed_system: PDE III (Homo sapiens, UniProt Q14432)
endpoint_name: IC50
result_qualifier: =
result: 107
//
compound: COc1ccc(CNc2cccc3nc(-c4cccc(Cl)c4)oc23)cc1OC1CCCC1 [Example 36]
assayed_system: PDE III (Homo sapiens, UniProt Q14432)
endpoint_name: IC50
result_qualifier: >
result: 300
//
compound: COCCCc1cc(Cl)cc2nc(Cc3ccccc3Cl)oc12 [Example 39]
assayed_system: PDE III (Homo sapiens, UniProt Q14432)
endpoint_name: IC50
result_qualifier: =
result: 53.9
//
compound: COc1ccc(Cc2nc3cccc(N)c3o2)cc1OC1CCCC1 [Example 13, Hydrochloride]
assayed_system: PDE III (Homo sapiens, UniProt Q14432)
endpoint_name: IC50
result_qualifier: =
result: 253
//
compound: COc1ccc(Cc2nc3cccc(NCc4ncc[nH]4)c3o2)cc1OC1CCCC1 [Example 35]
assayed_system: PDE III (Homo sapiens, UniProt Q14432)
endpoint_name: IC50
result_qualifier: >
result: 300
//
compound: CC(C)(C)c1cc(CCc2nc3ccccc3o2)cc(C(C)(C)C)c1O [Example 47]
assayed_system: PDE III (Homo sapiens, UniProt Q14432)
endpoint_name: IC50
result_qualifier: >
result: 300
//
compound: OCCCc1cc(Cl)cc2nc(Cc3cccc(Cl)c3)oc12 [Example 42]
assayed_system: PDE III (Homo sapiens, UniProt Q14432)
endpoint_name: IC50
result_qualifier: =
result: 48.6
//
compound: CC(C)(C)c1cc(Cc2nc3ccccc3o2)cc(C(C)(C)C)c1O [Example 45]
assayed_system: PDE III (Homo sapiens, UniProt Q14432)
endpoint_name: IC50
result_qualifier: =
result: 72.4
//
compound: OCCCc1cc(Cl)cc2nc(Cc3ccccc3)oc12 [Example 37]
assayed_system: PDE III (Homo sapiens, UniProt Q14432)
endpoint_name: IC50
result_qualifier: =
result: 77
//
compound: COc1ccc(Cc2nc3c(O)cccc3o2)cc1OC1CCCC1 [Example 7]
assayed_system: PDE III (Homo sapiens, UniProt Q14432)
endpoint_name: IC50
result_qualifier: =
result: 124
//
compound: Nc1cccc2nc(-c3cccc(Cl)c3)oc12 [Example 32]
assayed_system: PDE III (Homo sapiens, UniProt Q14432)
endpoint_name: IC50
result_qualifier: >
result: 300
//
compound: COc1ccc(Cc2nc3cccc(NC(=O)c4ccncc4)c3o2)cc1OC1CCCC1 [Example 16, Hydrochloride]
assayed_system: PDE III (Homo sapiens, UniProt Q14432)
endpoint_name: IC50
result_qualifier: =
result: 43.9
//
compound: C=CCc1cc(Cl)cc2nc(Cc3ccc(OC)c(OC4CCCC4)c3)oc12 [Example 1]
assayed_system: PDE III (Homo sapiens, UniProt Q14432)
endpoint_name: IC50
result_qualifier: >
result: 300
//
compound: COc1ccc(Cc2nc3cc(Cl)cc(CC=O)c3o2)cc1OC1CCCC1 [Example 25]
assayed_system: PDE III (Homo sapiens, UniProt Q14432)
endpoint_name: IC50
result_qualifier: =
result: 118
//
compound: COc1ccc(Cc2nc3cc(Cl)cc(CC(N)=O)c3o2)cc1OC1CCCC1 [Example 30]
assayed_system: PDE III (Homo sapiens, UniProt Q14432)
endpoint_name: IC50
result_qualifier: =
result: 128
